- assayName: Cytotoxicity against human MRC5 cells after 48 hrs by WST8 assay
- Type: cell-based
quantityName: GI50 at 48 h (µM)
Give bare numbers, in µM.

C/C=C(/C)C(=O)O[C@H]1[C@H](OC(=O)/C(C)=C\C)[C@]2(CO)[C@H](O)[C@H](O)[C@]3(C)C(=CC[C@@H]4[C@@]5(C)CC[C@H](O[C@@H]6O[C@H](C(=O)O)[C@@H](O)[C@H](O[C@@H]7O[C@@H](CO)[C@H](O)[C@H]7O)[C@H]6O[C@@H]6O[C@H](CO)[C@H](O)[C@H](O)[C@H]6O)C(C)(C)[C@@H]5CC[C@]43C)[C@@H]2CC1(C)C : 5.26
C/C=C(/C)C(=O)O[C@H]1[C@H](OC(=O)/C(C)=C\C)[C@]2(CO)[C@H](O)C[C@]3(C)C(=CC[C@@H]4[C@@]5(C)CC[C@H](O[C@@H]6O[C@H](C(=O)O)[C@@H](O)[C@H](O[C@@H]7O[C@@H](CO)[C@H](O)[C@H]7O)[C@H]6O[C@@H]6O[C@H](CO)[C@@H](O)[C@H](O)[C@H]6O)[C@](C)(CO)[C@@H]5CC[C@]43C)[C@@H]2CC1(C)C : 5.5
C/C=C(/C)C(=O)O[C@H]1[C@H](OC(=O)/C(C)=C\C)[C@]2(CO)[C@H](O)C[C@]3(C)C(=CC[C@@H]4[C@@]5(C)CC[C@H](O)C(C)(C)[C@@H]5CC[C@]43C)[C@@H]2CC1(C)C : 7.18
C/C=C(/C)C(=O)O[C@H]1[C@H](OC(C)=O)[C@]2(CO)[C@H](O)C[C@]3(C)C(=CC[C@@H]4[C@@]5(C)CC[C@H](O[C@@H]6O[C@H](C(=O)O)[C@@H](O)[C@H](O[C@@H]7O[C@@H](CO)[C@H](O)[C@H]7O)[C@H]6O[C@@H]6O[C@H](CO)[C@@H](O)[C@H](O)[C@H]6O)[C@](C)(CO)[C@@H]5CC[C@]43C)[C@@H]2CC1(C)C [AESCULIOSIDE III] : 12.8
C/C=C(\C)C(=O)O[C@H]1[C@H](OC(C)=O)[C@]2(CO)[C@H](O)C[C@]3(C)C(=CC[C@@H]4[C@@]5(C)CC[C@H](O[C@@H]6O[C@H](C(=O)O)[C@@H](O)[C@H](O[C@@H]7O[C@@H](CO)[C@H](O)[C@H]7O)[C@H]6O[C@@H]6O[C@H](CO)[C@H](O)[C@H](O)[C@H]6O)C(C)(C)[C@@H]5CC[C@]43C)[C@@H]2CC1(C)C [AESCULIOSIDE IIJ] : 17.3
C/C=C(/C)C(=O)O[C@H]1[C@H](O)[C@]2(COC(C)=O)[C@H](O)C[C@]3(C)C(=CC[C@@H]4[C@@]5(C)CC[C@H](O[C@@H]6O[C@H](C(=O)O)[C@@H](O)[C@H](O[C@@H]7O[C@@H](CO)[C@H](O)[C@H]7O)[C@H]6O[C@@H]6O[C@H](CO)[C@@H](O)[C@H](O)[C@H]6O)[C@](C)(CO)[C@@H]5CC[C@]43C)[C@@H]2CC1(C)C [AESCULIOSIDE IIIA] : 8.65

Go through the list and state GI50 at 48 h for each entry.
1. C/C=C(/C)C(=O)O[C@H]1[C@H](O)[C@]2(CO)[C@H](O)C[C@]3(C)C(=CC[C@@H]4[C@@]5(C)CC[C@H](O[C@@H]6O[C@H](C(=O)O)[C@@H](O)[C@H](O[C@@H]7O[C@@H](CO)[C@H](O)[C@H]7O)[C@H]6O)[C@](C)(CO)[C@@H]5CC[C@]43C)[C@@H]2CC1(C)C [AESCULIOSIDE IID]
2. C/C=C(/C)C(=O)O[C@H]1[C@H](OC(=O)/C(C)=C/C)C(C)(C)C[C@H]2C3=CC[C@@H]4[C@@]5(C)CC[C@H](O[C@@H]6O[C@H](C(=O)O)[C@@H](O)[C@H](O[C@@H]7O[C@@H](CO)[C@H](O)[C@H]7O)[C@H]6O[C@@H]6O[C@H](CO)[C@@H](O)[C@H](O)[C@H]6O)[C@](C)(CO)[C@@H]5CC[C@@]4(C)[C@]3(C)[C@@H](O)[C@@H](O)[C@]21CO [AESCULIOSIDE IIIE]
3. C/C=C(/C)C(=O)O[C@H]1[C@H](OC(=O)C(C)CC)[C@]2(CO)[C@H](O)[C@H](O)[C@]3(C)C(=CC[C@@H]4[C@@]5(C)CC[C@H](O[C@@H]6O[C@H](C(=O)O)[C@@H](O)[C@H](O[C@@H]7O[C@@H](CO)[C@H](O)[C@H]7O)[C@H]6O[C@@H]6O[C@H](CO)[C@H](O)[C@H](O)[C@H]6O)C(C)(C)[C@@H]5CC[C@]43C)[C@@H]2CC1(C)C (stereo not given in full) [AESCULIOSIDE IVA]

Result:
15.4
21.5
4.78
